Data origin, for the record: the supplement of paper PMC12042874

# Protocol notes: amyloid nucleation score (Sup35N fusion, yeast selection) (log enrichment); library NNK1; higher = more nucleation; inactive = no reads after selection;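 also: zero at mode of non-aggregating sequences after 7 days selection at 30°C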
Assign amyloid nucleation score to each entry below.
Quick one: just the number, no unit, thanks!

So for SLGGVGRTTHNILCEADSGA , the logged amyloid nucleation score turned out to be 1.44

Form field amyloid nucleation score, entry VFIYTAACP : 0.492

Kindly note the recorded amyloid nucleation score for RIWSLRPFRSEYLRVCFFVS , which is 0.437

Entry LDFMSLHN — recorded amyloid nucleation score = 0.218

Given item SYMSLAFIS , the value recorded as its amyloid nucleation score is 0.004

The substance YHANICSKFSSLYSNL showed amyloid nucleation score equal to 1.01

Item: RNLYQFM | amyloid nucleation score: 0.203

Memo: SLRYSLCRL , reported amyloid nucleation score: 0.328

Looking up GSGSAPCCTIAFMMLFGTEG , I found its amyloid nucleation score recorded as -0.057

Just so you know, measured amyloid nucleation score for GVMQFENIYGFVALMRRLMF came out at 0.668

So, GPTATVPPRHTREFILFKYS ? Its amyloid nucleation score was -0.593

Memo: PVGYYILGMNGRVMNWSQRQ , reported amyloid nucleation score: 1.73

Query PYKTWRYSSRIFYWAALPMV yields amyloid nucleation score of -0.842

Recorded amyloid nucleation score (substance AVFLMFRYASFTYWM ): 0.444

What the record says about NAVINQ : amyloid nucleation score is 0.388

Kindly note the recorded amyloid nucleation score for LYFVSSAFSSQS , which is 0.014

Recorded amyloid nucleation score (substance FGSDPISCGVWYMCVRGWYG ): 0.108

Sample CFIRLNNWLF ; amyloid nucleation score observed: 1.59

Lab note: TFYEHMVCGRHQSQAVWLVK gave amyloid nucleation score of 0.169

The reported amyloid nucleation score of the substance RHWDIRSGHNLWQMVG was -0.55

# amyloid nucleation score (substance: QCMSMSYPFMPRTHQRTVLK ) is -0.179

// FAWVDPGFLWDNLTPGTDRC : amyloid nucleation score value = 0.253

GET /value?item= FLHNSWTGGGGTYGICKMRV &field=amyloid nucleation score returns -0.368

Looking up LHLFGQ , I found its amyloid nucleation score recorded as 0.067

----------
# Protocol notes: amyloid nucleation score (Sup35N fusion, yeast selection) (log enrichment); library NNK2; higher = more nucleation; inactive = no reads after selection
Recorded metric: amyloid nucleation score

Check out these entries, answers already filled in.
{"Substance": "PFAWANKYTIQPINPYRGAA", "amyloid nucleation score": -0.552}
{"Substance": "KMKAGAMWCGSRIASKSRRG", "amyloid nucleation score": 1.51}
{"Substance": "WLNVDYSYSALRLHNCNGLM", "amyloid nucleation score": 1.64}
{"Substance": "LWVCSCSNALTNGLWGAVSL", "amyloid nucleation score": 5.15}
{"Substance": "RAEVNA", "amyloid nucleation score": 0.517}

Record YWFFNWEWSGLVVYVGRFSA . Reported amyloid nucleation score: inactive

----------
# Protocol notes: amyloid nucleation score (Sup35N fusion, yeast selection) (log enrichment); library NNK2; higher = more nucleation; inactive = no reads after selection
Please respond with reported amyloid nucleation score for every item in the list.
Form field (numeric): enter value without unit.

amyloid nucleation score measured on WCCLYDYFVDTGVLFIQDGS = -0.186

Per the record, VLVKSLMRENVPCPPLGTLS has amyloid nucleation score of 0.942

Value of measured amyloid nucleation score for the entry DRCMFNYVIEVHVYSCVRFW : 4.67

# amyloid nucleation score (substance: SNKTIYKLFRIISPGYFGSS ) is -1.16

According to the records, this substance HVVLTLGLRISQHRLLRYKK displays amyloid nucleation score of 5.64
